System: NCI/ADR-RES
Assay: NCI tumour cell line growth inhibition, 48 h
Activity calls are given as the source filed them. Rule as the data show it: active = GI50 up to about 1.1 µM and inactive = higher. Starred links: 1 amine or outer side, 2 acyl side, 3 side chain; linkers in the order of their positions; H or OH if unused. Positions of bridges follow the written chain, without caps; N, C: chain ends. Non-standard residues stand in square brackets, D forms with d. Residues, ends and D or L forms follow the SMILES beside them. Peptide text beside a SMILES is read from it. * marks the point of attachment. *: point of attachment. X40 = CC[C@H](C)[C@@H](N[*:1])[C@@H](O)CC(=O)[*:2]; NMeY = CN[C@@H](Cc1ccc(O)cc1)C(=O)O; dNMeL = CN[C@H](CC(C)C)C(=O)O; Hiv = CC(C)[C@H](O)C(=O)O; Pyruvoyl = CC(=O)C(=O)*; Boc = CC(C)(C)OC(=O)*
MEASUREMENT_TYPE: GI50

* N#Cc1c(Cl)cccc1Oc1ccc(S(=O)(=O)/N=C(\NN)Nc2ccc(Cl)cc2)cc1 | 32.9 µM (inactive)
* C1=N\CCN2CCN(CC/N=C\c3ccc(cc3)OCc3cccc(n3)COc3ccc/1cc3)CC2 | > 50 µM (inactive)

In: Which measured GI50 value corresponds to COc1cccc2c(=O)oc(-c3ccc(C(C)(C)C)cc3)nc12 ?
Out: 54.8 µM (inactive)

In: Similarly, CC[C@H](C)[C@H]1NC(=O)[C@@H](NC(=O)[C@@H](CC(C)C)N(C)C(=O)[C@@H]2CCCN2C(=O)C(C)=O)[C@@H](C)OC(=O)[C@H](Cc2ccc(OC)cc2)N(C)C(=O)[C@@H]2CCCN2C(=O)[C@H](CC(C)C)NC(=O)[C@H](C(C)C)OC(=O)C[C@@H]1O (Pyruvoyl-P[dNMeL]T[X40][Hiv]LP[NMeY](Me); ester 3-C) ?
Out: 0.226 µM (active)

In: Now consider COC(=O)C(Cc1ccccc1)NC(=O)C(CS)NC(=O)OC(C)(C)C (stereo not drawn) (Boc-Cys-Phe-OMe; configuration not given here) and answer again.
Out: > 100 µM (inactive)

In: Then this compound: C=CCN(c1cc(OC)c(NC(C)=O)cc1[N+](=O)[O-])S(C)(=O)=O
Out: > 100 µM (inactive)

In: Repeat with C#CC1(O)C(COP(=O)(O)OCC2OC(n3ccc(NCCCCCCCCCCCCCCCCCC)nc3=O)C(O)C2O)OC(n2ccc(N)nc2=O)C1O (centres undefined)
Out: 0.556 µM (active)

The origin of these recorded values is ChEMBL document CHEMBL1201862.
